# assayed-target: T1, delta opioid receptor (DOR) (UniProt P41143)
# T1 chain: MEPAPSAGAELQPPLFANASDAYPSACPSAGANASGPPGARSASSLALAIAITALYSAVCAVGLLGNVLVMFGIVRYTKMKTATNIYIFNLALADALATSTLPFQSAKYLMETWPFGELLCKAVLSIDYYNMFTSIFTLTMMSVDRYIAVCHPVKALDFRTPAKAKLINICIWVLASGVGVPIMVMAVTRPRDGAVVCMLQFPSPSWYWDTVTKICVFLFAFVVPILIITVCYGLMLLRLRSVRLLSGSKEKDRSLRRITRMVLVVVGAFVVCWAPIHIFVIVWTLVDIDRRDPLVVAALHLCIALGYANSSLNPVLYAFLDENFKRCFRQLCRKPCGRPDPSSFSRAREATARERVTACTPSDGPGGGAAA
# procedure-text: competition
Non-standard residues stand in square brackets, D forms with d. No end group written: not given here. *: point of attachment. NH(3,5-(CF3)2-benzyl) = FC(F)(F)c1cc(CN*)cc(C(F)(F)F)c1; Phe(4-F) = N[C@@H](Cc1ccc(F)cc1)C(=O)O; NMeF = CN[C@@H](Cc1ccccc1)C(=O)O
measure: pKi
Interpret pKi as the negative base-10 log of the concentration measured in mol/L.

Y[dA]G[Phe(4-F)]PLW-{NH(3,5-(CF3)2-benzyl)} [AKG190]
9.70
XAGFPLW (Dmt1, D-Ala2; C-terminal NH-Bn(3',5'-(CF3)2)) [AKG116]
9.00
Y[dA]G[NMeF]PLW-{NH(3,5-(CF3)2-benzyl)} [AKG117]
6.63

Fill in: pKi of XAGFPLW (Dmt1, D-Ala2, NMePhe4; C-terminal NH-Bn(3',5'-(CF3)2)) [AKG115] is ___
8.30

Fill in: pKi of XAGFPLW (Dmt1, D-Ala2, Phe(4-F)4; C-terminal NH-Bn(3',5'-(CF3)2)) [AKG127] is ___
9.00

Fill in: pKi of XAGFPLW (Dmt1, D-Ala2, Phe(4-Cl)4; C-terminal NH-Bn(3',5'-(CF3)2)) [AKG191] is ___
8.30
